Recorded values, source PubChem BioAssay (EPA / NIEHS).

# assay_explanation: TOX21_p53_BLA_p2_viability: Viability Assessment in the Tox21 HCT-116 p53 Agonism Beta-lactamase Assay, Phase 2 (AID 2283591);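 further: compound exposure lasted 16 h at 37 °C; actives lower the ATP signal meaning cytotoxicity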
Inconclusive results are not listed. Calls of active or inactive are those of the source. How the source made its calls: active means hit-call score of the fitted dose curve at least 0.9, where 1 is the maximum; inconclusive means response in the unintended direction; inactive means score below 0.9.
reported_metric: AC50

Example compounds with recorded AC50:
{"columns": ["compound", "AC50"],
 "data": [
  ["O", "inactive"],
  ["NCCN1CCNC1=O", "inactive"],
  ["CC(=O)O[C@H]1CC[C@@]2(C)C(=CC[C@H]3[C@@H]4CC[C@H](C(C)=O)[C@@]4(C)CC[C@@H]32)C1", "inactive"],
  ["CN1[C@@H](CC(=O)c2ccccc2)CCC[C@H]1C[C@H](O)c1ccccc1", "inactive"],
  ["CNCC[C@@H](Oc1ccccc1C)c1ccccc1", "inactive"]
]}

Return reported AC50. Input compound: NCCS
inactive

Return reported AC50. Input compound: Nc1cc(-c2ccncc2)c[nH]c1=O
inactive

Return reported AC50. Input compound: COC(=O)CCC(=O)O
inactive

Return reported AC50. Input compound: CC1(C)CCC(C)(C)c2cc(NC(=O)c3ccc(C(=O)O)cc3)ccc21
36.6 µM (active)

----------
# assay_explanation: CCTE_Mundy_HCI_Cortical_Synap_Neur_Matur_NeuriteSpotCountPerNeuriteLength: CCTE's Synaptogenesis and Neurite Maturation Assay in rat cortical cells for Neurite Spot Count per Neurite Length, Mundy Lab (AID 2284210)
Activity calls are given as the source filed them. How the source made its calls: active means hit-call score of the fitted dose curve at least 0.9, where 1 is the maximum; inactive means score below 0.9.
Hi there, use one of these labels in your reply, thanks! active, inactive

Worked examples, 5 compounds total:
{"columns": ["compound", "category"],
 "data": [
  ["CC(C)(C)NCC(O)c1cc(O)cc(O)c1 (stereo not drawn)", "inactive"],
  ["CNCCC(Oc1ccc(C(F)(F)F)cc1)c1ccccc1 (stereo not drawn)", "active"],
  ["CN(C)CCC(c1ccc(Cl)cc1)c1ccccn1 (stereo not drawn)", "inactive"],
  ["Cc1c(O)cccc1C(=O)N[C@@H](CSc1ccccc1)[C@H](O)CN1C[C@H]2CCCC[C@H]2C[C@H]1C(=O)NC(C)(C)C", "active"],
  ["[Cl-].[Cl-].[NH2-].[NH2-].[Pt+4]", "inactive"]
]}

State the result this test recorded for CC1(C)S[C@@H]2[C@H](NC(=O)[C@H](N)c3ccc(O)cc3)C(=O)N2[C@H]1C(=O)O .
inactive

State the result this test recorded for CC1(C)S[C@@H]2[C@H](NC(=O)[C@H](N)c3ccccc3)C(=O)N2[C@H]1C(=O)O .
inactive

State the result this test recorded for NC(N)=Nc1nc(CSCCC(N)=NS(N)(=O)=O)cs1 .
inactive

----------
# assay_explanation: TOX21_p53_BLA_p3_viability: Viability Assessment in the Tox21 HCT-116 p53 Agonism Beta-lactamase Assay, Phase 3 (AID 2283593);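 further: cells exposed to compound for 16 h before reading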
# Text: TOX21_p53_BLA_p3 is a cell-based, single-readout assay that uses HCT116, a human intestinal cell line, […] in a 1536-well plate.TOX21_p53_BLA_p3_viability is an assay readout measuring cellular ATP content and detected with CellTiter-Glo Luciferase-coupled ATP quantitation.TOX21_p53_BLA_p3_viability used a type of viability reporter where loss-of-signal activity can be used to understand changes in the cell viability. […]
Inconclusive results are not listed. Activity calls are given as the source filed them. Rule for the calls: active = hit-call score of the fitted dose curve at least 0.9, where 1 is the maximum; inconclusive = response in the unintended direction; inactive = score below 0.9.
Hi there, use one of these labels in your reply, thanks! true (active), false (inactive)

State the result this test recorded for Cc1c(C(=O)NCCO)[n+](=O)c2ccccc2n1[O-] .
false

State the result this test recorded for CC1=CC(=C(c2ccc(N)cc2)c2ccc(N)cc2)C=CC1=N .
false

State the result this test recorded for CCOC(=O)COc1ccc(C)cc1 .
false

State the result this test recorded for COc1cccc(Br)c1 .
false

State the result this test recorded for COC(=O)C1=C(C)NC(C)=C(C(=O)OCCCN2CCC(c3ccccc3)(c3ccccc3)CC2)C1c1cccc([N+](=O)[O-])c1 (stereo unspecified) .
true

State the result this test recorded for N#CCN(CC#N)CCN(CC#N)CC#N .
false
